Record form. Attribute: growth inhibition. Fill in for each entry.
ASSAY INFO: NCI Yeast Anticancer Drug Screen. Data for the rad50EPP+ strain (AID 151);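 further: 0% = growth of vehicle-treated control cultures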
CONDITION SET: S. cerevisiae rad50 mutant strain, at 11.0 µM, stronger effect = higher value
The panel holds about 79,000 compounds, 15% with a hit somewhere; the sample as a whole holds those more often.
Answers are plain numbers, in %.

Give measured growth inhibition for every item shown.
1. FC(F)(F)c1cc(NC(=S)N2c3ccccc3-n3cccc3C2c2cccnc2)cc(C(F)(F)F)c1 (stereo not given)
2. Cc1cc(S(=O)(=O)/N=C(/NN)NNc2cccc(C(F)(F)F)n2)c(S)cc1Cl
3. Cn1c(N)nc(-c2ccc(Cl)cc2)c1SSc1c(-c2ccc(Cl)cc2)nc(N)n1C
4. C=C1CC(Cn2cc(Br)c(=O)[nH]c2=O)(c2ccc(-c3ccccc3)cc2)OC1=O (stereo not given)
5. N#Cc1c(N)[nH]c2ccc(Sc3ccccc3)cc12

Resp:
18
-28
53
3
19

Values from PubChem BioAssay (NCI)
